# subjectOfTest: T1, human TIGIT-Fc antigen (human, UniProt Q495A1 22-141)
# T1 construct: not shown: Fc part
# T1 chain: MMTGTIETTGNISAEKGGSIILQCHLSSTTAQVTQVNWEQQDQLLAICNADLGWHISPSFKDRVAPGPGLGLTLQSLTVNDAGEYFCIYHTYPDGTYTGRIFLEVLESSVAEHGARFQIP
# measurementNotes: ELISA, IgG titrated on plate-coated human TIGIT-Fc
readoutLabel: EC50 (nM)
Your answer should be a plain number; it is taken to be in nM.

// known answers, use as guide
Suppose we examine the binder 1F10 (IgG-type anti-TIGIT antibody) (antibody, V domains shown, section 4.2 is headed 'Conversion to IgG4-Type Anti-TIGIT Antibodies') VH: EVQLVESGGGLVKPGGSLRISCAASGFTFSNYNMIWVRQAPGKGLEWVSSISSSASYIYYADSVKGRFTISRDNAKNSLYLQMNSLRAEDTAVYYCARDEGSRDSWNNGPYYYSGMDVWGQGTTVTVSS VL: AIQMTQSPSSLSASVGDRVTITCRASQSISRYLNWYQHKPGKAPKLLIYGASSLQSGVPSRFRGSGSGTDFTLTISSLQPEDFATYYCQQSYTTPGAFTFGGGTKVEIKR ; what EC50 value has been reported?
5.35

What would you report for WIN_1B6 (IgG-type anti-TIGIT antibody) (antibody, V domains shown, section 4.2 is headed 'Conversion to IgG4-Type Anti-TIGIT Antibodies') VH: QVQLVQSGAEVKKPGASVKVSCKASGYTFTSYGISWVRQAPGQGLEWMGWISAYNGNTNYAQKLQGRVTMTTDTSTSTAYMELRSLRSDDTAVYYCARAGWEQQLGFDYWGQGTLVTVSS VL: AIQLTQSPSSLSASVGDRVTISCRASQTIRSYLNWYQQKPGKAPKLLIYAASSLQSGVPLRFSGSGSGTDFTLTISSLQPEDFATYYCQQSYSTLPLTFGGGTKVEIKR ?
0.86

What would you report for 1E8 (IgG-type anti-TIGIT antibody) (antibody, V domains shown, section 4.2 is headed 'Conversion to IgG4-Type Anti-TIGIT Antibodies') VH: QVQLVQSGTEVKKPGASVKVSCKASGYTFSSYAITWVRQAPGQGLEWMGWISAYNGNTNYAQKLQGRVTMTTDTSTSTAYMELRSLRSDDTAVYYCARVDFWSGYNYFDYWGQGTLVTVSS VL: DIQMTQSPSSLSASVGDRVTITCRASQGISNYLAWYQQKPGKVPKVLIYAASTLQSGVPSRFSGSGSGTDFTLTISSLQPEDVATYYCQKSNSAPLTFGGGTKVEIKR ?
1.73

Then this binder:
Suppose we examine the binder WIN_1D2 (IgG-type anti-TIGIT antibody) (antibody, V domains shown, section 4.2 is headed 'Conversion to IgG4-Type Anti-TIGIT Antibodies') VH: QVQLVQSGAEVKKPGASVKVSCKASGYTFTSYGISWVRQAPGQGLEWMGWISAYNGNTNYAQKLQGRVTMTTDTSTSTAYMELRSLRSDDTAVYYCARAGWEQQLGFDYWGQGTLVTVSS VL: AIQLTQSPSSLSASVGDRVTITCRASQSISSYLNWYQQKPGKAPKLLIYAASSLQSGVPSRFSGSGSGTDFTLTISSLQPEDFATYYCQQSYSTLAITFGQGTRLEIKR ; what EC50 value has been reported?
1.75
